Molecular target: Phospho-N-acetylmuramoyl-pentapeptide-transferase (Bacillus subtilis (strain 168))
Sequence (Q03521 whole entry): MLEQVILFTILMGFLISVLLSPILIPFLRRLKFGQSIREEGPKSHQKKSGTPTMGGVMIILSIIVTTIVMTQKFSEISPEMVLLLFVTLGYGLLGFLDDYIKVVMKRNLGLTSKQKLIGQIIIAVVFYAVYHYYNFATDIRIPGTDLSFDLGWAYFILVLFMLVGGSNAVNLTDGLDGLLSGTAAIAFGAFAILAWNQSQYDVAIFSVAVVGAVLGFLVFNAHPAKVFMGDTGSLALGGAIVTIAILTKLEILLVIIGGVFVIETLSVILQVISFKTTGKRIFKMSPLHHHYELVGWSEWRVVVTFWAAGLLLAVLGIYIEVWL
Assay: Inhibition of MraY in Bacillus subtilis
This listing pairs molecules with measured IC50.

input: // lookup IC50 for "NC[C@H]1O[C@@H](O[C@@H](c2cn(CCCn3ccnc3)nn2)[C@H]2O[C@@H](n3ccc(=O)[nH]c3=O)[C@H](O)[C@@H]2O)[C@H](O)[C@@H]1O"
output: > 1000 µM

input: // lookup IC50 for "C#C[C@H](O[C@@H]1O[C@H](CN)[C@@H](O)[C@H]1O)[C@H]1O[C@@H](n2ccc(=O)[nH]c2=O)[C@H](O)[C@@H]1O"
output: 100 µM

input: // lookup IC50 for "NC[C@H]1O[C@@H](O[C@@H](c2cn(CCCCCO)nn2)[C@H]2O[C@@H](n3ccc(=O)[nH]c3=O)[C@H](O)[C@@H]2O)[C@H](O)[C@@H]1O"
output: > 1000 µM

input: // lookup IC50 for "CCCCCCCCCCn1cc([C@H](O[C@@H]2O[C@H](CN)[C@@H](O)[C@H]2O)[C@H]2O[C@@H](n3ccc(=O)[nH]c3=O)[C@H](O)[C@@H]2O)nn1"
output: 140 µM

input: // lookup IC50 for "NC[C@H]1O[C@@H](O[C@@H](c2cn(CCc3ccc(-c4ccccc4)cc3)nn2)[C@H]2O[C@@H](n3ccc(=O)[nH]c3=O)[C@H](O)[C@@H]2O)[C@H](O)[C@@H]1O"
output: 400 µM

input: // lookup IC50 for "NC[C@H]1O[C@@H](O[C@@H](c2cn(CCN3CCN(c4ccc(N)cn4)CC3)nn2)[C@H]2O[C@@H](n3ccc(=O)[nH]c3=O)[C@H](O)[C@@H]2O)[C@H](O)[C@@H]1O"
output: > 1000 µM
